# assay protocol: Solubility (Test F)
# Format: physicochemical
# measurement context: arithmetic mean if run multiple times
measurement type: solubility

[[record]]
compound = "COc1cc(F)c(-c2cccc(C[C@@H](C(=O)O)N(C)C)c2)cc1C(=O)N[C@@H]1[C@H]2CC[C@H](C2)[C@@H]1C(=O)Nc1cccc(S(=O)(=O)C(F)(F)F)c1 (racemic)"
measurement_type = "solubility"
reported_result = "21 µM"

[[record]]
compound = "COc1cc(F)c(O[C@H]2CC[C@@H](C(=O)O)CC2)cc1C(=O)N[C@@H]1[C@H]2CC[C@H](C2)[C@@H]1C(=O)Nc1cc(F)c(F)c(F)c1"
measurement_type = "solubility"
reported_result = "580 µM"

[[record]]
compound = "COc1cc(F)c(O[C@H]2CC[C@@H](C(=O)O)CC2)cc1C(=O)N[C@@H]1CCC[C@@H]1C(=O)Nc1cccc(S(=O)(=O)C(F)(F)F)c1"
measurement_type = "solubility"
reported_result = "940 µM"

[[record]]
compound = "COc1cc(C#N)c(O[C@H]2CC[C@@](C)(C(=O)O)CC2)cc1C(=O)N[C@@H]1[C@H]2CC[C@H](C2)[C@@H]1C(=O)NC12CC3C[C@H](C1)C[C@H](C3)C2"
measurement_type = "solubility"
reported_result = "250 µM"

[[record]]
compound = "CC1(CNC(=O)[C@H]2[C@H]3CC[C@H](C3)[C@H]2NC(=O)c2cc(O[C@H]3CC[C@@](C)(C(=O)O)CC3)c(C#N)cc2F)CCC1"
measurement_type = "solubility"
reported_result = "820 µM"

[[record]]
compound = "COc1cc(F)c(O[C@H]2CC[C@@](C)(C(=O)O)CC2)cc1C(=O)NC1C(C(=O)Nc2cccc(S(=O)(=O)C(F)(F)F)c2)CC2OCOC21 (single isomer, unassigned)"
measurement_type = "solubility"
reported_result = "880 µM"

[[record]]
compound = "COc1cc(C#N)c(O[C@H]2CC[C@@](C)(C(=O)O)CC2)cc1C(=O)NC1C2C=CC(CC2)C1C(=O)NCC1(C)CCC1 (single isomer, unassigned)"
measurement_type = "solubility"
reported_result = "1000 µM"

[[record]]
compound = "COc1cc(C#N)c(O[C@H]2CC[C@@](C)(C(=O)O)CC2)cc1C(=O)N[C@@H]1[C@H]2CC[C@H](C2)[C@@H]1C(=O)NCC1(F)CCOCC1"
measurement_type = "solubility"
reported_result = "950 µM"

[[record]]
compound = "COc1cc(F)c(-c2ccc(OC(C)(C)C(=O)O)cc2)cc1C(=O)N[C@@H]1[C@H]2CC[C@H](C2)[C@@H]1C(=O)Nc1cccc(S(=O)(=O)C(F)(F)F)c1"
measurement_type = "solubility"
reported_result = "< 7 µM"

[[record]]
compound = "COC[C@]1(C(=O)O)CC[C@@H](Oc2cc(C(=O)N[C@@H]3[C@H]4CC[C@H](C4)[C@@H]3C(=O)Nc3cccc(S(=O)(=O)C(F)(F)F)c3)c(OC)cc2F)CC1"
measurement_type = "solubility"
reported_result = "> 1000 µM"

[[record]]
compound = "COc1cc(F)c(O[C@H]2CC[C@@H](C(=O)O)CC2)cc1C(=O)N[C@@H]1[C@H](C(=O)Nc2ccc(F)c(C(F)(F)F)c2)[C@@H]2CC[C@H]1O2"
measurement_type = "solubility"
reported_result = "60 µM"

[[record]]
compound = "COc1cc(F)c(-c2ccc(CC(=O)O)cc2)cc1C(=O)N[C@@H]1CCC[C@@H]1C(=O)Nc1cccc(S(=O)(=O)C(F)(F)F)c1"
measurement_type = "solubility"
reported_result = "> 1000 µM"

[[record]]
compound = "CCCCNC(=O)[C@H]1[C@@H]2CC[C@@H](C2)[C@H]1NC(=O)c1cc(O[C@H]2CC[C@@](C)(C(=O)O)CC2)c(C#N)cc1OC"
measurement_type = "solubility"
reported_result = "830 µM"

[[record]]
compound = "COc1cc(C#N)c(O[C@H]2CC[C@@](C)(C(=O)O)CC2)cc1C(=O)N[C@@H]1[C@H]2CC[C@H](C2)[C@@H]1C(=O)NCC1(C#N)CCC1"
measurement_type = "solubility"
reported_result = "920 µM"

[[record]]
compound = "COc1cc(F)c(-c2ccc(C[C@@H](C(=O)O)N(C)C)cc2)cc1C(=O)N[C@@H]1[C@H]2CC[C@H](C2)[C@@H]1C(=O)Nc1cccc(S(=O)(=O)C(F)(F)F)c1 (racemic)"
measurement_type = "solubility"
reported_result = "36 µM"

[[record]]
compound = "COc1cc(F)c(O[C@H]2CC[C@@H](C(=O)O)CC2)cc1C(=O)N[C@@H]1[C@H]2CC[C@H](C2)[C@@H]1C(=O)Nc1cccc(C(F)(F)F)c1C"
measurement_type = "solubility"
reported_result = "590 µM"

[[record]]
compound = "COc1cc(F)c(O[C@H]2CC[C@@H](C(=O)O)CC2)cc1C(=O)N[C@@H]1[C@H]2CC[C@H](C2)[C@@H]1C(=O)Nc1cc(Cl)cnn1"
measurement_type = "solubility"
reported_result = "> 1000 µM"

[[record]]
compound = "COc1cc(F)c(O[C@H]2CC[C@@](C)(C(=O)O)CC2)cc1C(=O)Nc1ccccc1C(=O)NCC1(C)CCC1"
measurement_type = "solubility"
reported_result = "1.6 µM"

[[record]]
compound = "COc1cc(F)c(O[C@H]2C[C@@](C)(C(=O)O)C2)cc1C(=O)N[C@@H]1[C@H]2CC[C@H](C2)[C@@H]1C(=O)NCC1(C)CCC1"
measurement_type = "solubility"
reported_result = "840 µM"

[[record]]
compound = "COc1cc(F)c(O[C@H]2CC[C@H](NS(C)(=O)=O)CC2)cc1C(=O)N[C@@H]1[C@H]2CC[C@H](C2)[C@@H]1C(=O)Nc1cccc(S(=O)(=O)C(F)(F)F)c1"
measurement_type = "solubility"
reported_result = "2 µM"

[[record]]
compound = "COc1cc(F)c(O[C@H]2CC[C@@H](C(=O)O)CC2)cc1C(=O)N[C@@H]1[C@H]2CC[C@H](C2)[C@@H]1C(=O)NC1CCCCC1"
measurement_type = "solubility"
reported_result = "27 µM"

[[record]]
compound = "COc1cc(F)c(O[C@H]2CC[C@@H](C(=O)O)CC2)cc1C(=O)N[C@@H]1[C@H]2CC[C@H](C2)[C@@H]1C(=O)Nc1cc(C)cc(C(F)(F)F)c1"
measurement_type = "solubility"
reported_result = "290 µM"

